- measurement.protocol: P-glycoprotein substrates identified in KB-8-5-11 adenocarcinoma cell line, qHTS therapeutic library screen (AID 1346987); also: nearly all actives have a fitted effect of over 65% in size
- condition.description: KB-8-5-11 (P-gp overexpressing) viability, CellTiter-Glo, 72 h; series mostly up to 44.5 µM
Records with an inconclusive call do not appear. The source made the active and inactive calls. Calls follow the shape of the dose curve; as a rule, active = well fitted inhibition curve with a large enough effect; inconclusive = small, poorly fitted or top-dose-only effect; inactive = flat fitted curve, though single readings scatter.
Possible outcomes: active, inactive

molecule: CO[C@H]1[C@@H](O)[C@H](N)[C@@H](O[C@H]2O[C@H]([C@H](C)N)CC[C@H]2N)[C@H](O)[C@@H]1N(C)C(=O)CN
assigned.category: inactive
--
molecule: C/C=C(\C)C(=O)OC1C(C)C2(O)C(C=C(CO)CC3(O)C(=O)C(C)=CC32)C2C(C)(C)C12OC(C)=O (configuration not stated)
assigned.category: inactive
--
molecule: Cc1nc(C(=O)N2CCC[C@H]2Cc2nnc(-c3ccccc3)o2)c(-c2ccccc2F)s1
assigned.category: inactive
--
molecule: CNCCN1CCC(c2cc(CN(C)C(=O)c3cccc(Oc4ccccc4)c3)ccn2)CC1
assigned.category: inactive
--
molecule: Nc1nc2c(nc(Br)n2[C@@H]2O[C@@H]3COP(=O)(O)O[C@H]3[C@H]2O)c(=O)[nH]1
assigned.category: inactive
--
molecule: NC(=O)c1cccc2[nH]c(-c3ccc(C4CCCN4)cc3F)nc12 (configuration not stated)
assigned.category: inactive
--
molecule: CCn1c(-c2nonc2N)nc2c(C#CCO)ncc(OCCCN)c21
assigned.category: inactive
--
molecule: NCCCC[C@H](NC(=O)[C@@H]1CCCN1C(=O)[C@@H]1CSSC[C@H](N)C(=O)N[C@@H](Cc2ccc(O)cc2)C(=O)N[C@@H](Cc2ccccc2)C(=O)N[C@@H](CCC(N)=O)C(=O)N[C@@H](CC(N)=O)C(=O)N1)C(=O)NCC(N)=O
assigned.category: inactive
--
molecule: CC1(C)Oc2ncnc(N)c2N=C1c1ccc(C23CCC(CC(=O)O)(CC2)CC3)cc1
assigned.category: inactive
--
molecule: C[C@@H](N[C@H]1CCCC[C@@H]1NC(=O)c1ccc(Cl)cc1)c1cccc2ccccc12
assigned.category: active
--
molecule: CCCC(Nc1nc(-c2ccc(NC(=O)NCC)c(OC)c2)ncc1C)c1cccnc1 (configuration not stated)
assigned.category: active
--
molecule: Cc1cc(C)c(S(=O)(=O)n2cc(C)cc2C)c(C)c1
assigned.category: inactive
--
molecule: CC(C(=O)O)c1ccc(C2CCCCC2)c2ccccc12 (configuration not stated)
assigned.category: inactive
--
molecule: CC(C)S(=O)(=O)Nc1ccc(F)c(C(=O)c2c[nH]c3ncc(-c4cccnc4)cc23)c1F
assigned.category: inactive
--
molecule: CO[C@@H]1[C@H](O)CCC2(CO2)[C@H]1[C@@]1(C)O[C@@H]1CC=C(C)C (some centres not stated)
assigned.category: inactive
--
molecule: CO[C@H]1C[C@H](O[C@H]2[C@H](C)O[C@@H](O[C@@H]3/C(C)=C/C[C@@H]4C[C@@H](C[C@]5(C=C[C@H](C)[C@@H](C6CCCCC6)O5)O4)OC(=O)[C@@H]4C=C(C)[C@@H](O)[C@H]5OC/C(=C\C=C\[C@@H]3C)[C@]54O)C[C@@H]2OC)O[C@@H](C)[C@@H]1O
assigned.category: active
--
molecule: CCc1cc(C(N)=O)ccc1-n1nc(C(C)C)c2c(-n3cnc(-c4cnn(C)c4)c3)ccnc21
assigned.category: active

====

- assayed.system: Cytochrome P450 2C9 (Homo sapiens) (UniProt P11712)
- Sequence (P11712 whole entry, looked up): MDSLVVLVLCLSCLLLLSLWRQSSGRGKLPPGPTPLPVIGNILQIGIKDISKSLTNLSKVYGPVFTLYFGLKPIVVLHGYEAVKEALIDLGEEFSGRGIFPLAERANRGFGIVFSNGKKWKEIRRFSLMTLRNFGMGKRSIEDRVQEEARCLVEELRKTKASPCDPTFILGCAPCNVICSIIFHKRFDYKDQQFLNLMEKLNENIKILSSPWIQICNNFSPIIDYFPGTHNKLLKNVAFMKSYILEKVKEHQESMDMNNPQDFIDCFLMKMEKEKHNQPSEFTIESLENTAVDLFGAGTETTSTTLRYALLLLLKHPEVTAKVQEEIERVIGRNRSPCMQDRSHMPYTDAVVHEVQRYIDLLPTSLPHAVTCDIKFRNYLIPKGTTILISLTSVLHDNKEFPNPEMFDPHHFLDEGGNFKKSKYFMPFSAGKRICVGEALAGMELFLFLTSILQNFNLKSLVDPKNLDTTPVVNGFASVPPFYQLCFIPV
- measurement.protocol: Cytochrome P450 family 2 subfamily C member 9 (CYP2C9) small molecule antagonists: luciferase biochemical (cell-free) qHTS assay (AID 1645842); also: nearly all actives have a fitted effect of over 55% in size
- condition.description: P450-Glo CYP2C9 enzyme assay, luciferin luminescence; series mostly up to 57.4 µM
Inconclusive results are not listed. Activity calls are given as the source filed them. The call rests on the fitted dose curve; in most records, active means well fitted inhibition curve with a large enough effect in the repeat runs; inconclusive means weak or mixed curves; inactive means no such curve, though single readings can be large or run the other way.
Possible outcomes: class 1 = active, class 0 = inactive

compound: O=S(=O)(Nc1cc(Cl)c(Oc2cnc3ccccc3c2)c(Cl)c1)c1ccc(Cl)cc1Cl
assigned.category: class 1
--
compound: Cn1ncc(Cl)c1-c1cc(C(=O)N[C@H](CN)Cc2cccc(F)c2)sc1Cl
assigned.category: class 1
--
compound: O=C(Nc1cccc([N+](=O)[O-])c1)c1cccc(S(=O)(=O)N2CCCCCC2)c1
assigned.category: class 1
--
compound: OC(c1ccc(-c2ccc(CN3CCN(Cc4ccncc4)CC3)cc2)c(F)c1)(C(F)(F)F)C(F)(F)F
assigned.category: class 1
--
compound: NCC1CCN(c2nccc(-c3ccc4ccccc4c3)n2)CC1
assigned.category: class 1
--
compound: O=C(NCc1nc2ccccc2c(=O)n1-c1ccc(F)cc1)Nc1ccc(Cl)c(C(F)(F)F)c1
assigned.category: class 1
--
compound: CCCc1cc2c(N3CCN(C4=NCC(C)(C)S4)CC3)ncnc2s1
assigned.category: class 0
--
compound: N#CC(CCCN1CCN(/N=C/c2cccnc2)CC1)(c1ccccc1)c1ccccc1
assigned.category: class 1
--
compound: O=C(Nc1nnc(-c2ccc3c(c2)OCCO3)o1)C1CCCCC1
assigned.category: class 0
--
compound: CCCCC1CCC(c2nc(-c3ccncc3)no2)CC1 (stereo not given)
assigned.category: class 1
--
compound: Nc1nc2c(c(N3CC[C@@H](N)C3)n1)CCCc1ccccc1-2
assigned.category: class 0
--
compound: CNc1ccc([N+](=O)[O-])c(Nc2ccc3[nH]ncc3c2)n1
assigned.category: class 1
--
compound: Cc1cc2c(N3CCCC3)nc(N3CCCC3)nc2n1C
assigned.category: class 1
--
compound: Fc1ccc(-n2cc(CCCCN3CCC4(CC3)OCc3ccccc34)c3ccccc32)cc1
assigned.category: class 1
--
compound: Cc1nc2cc(C(=O)NCc3ccccn3)nn2c(C)c1Cc1cccc(Cl)c1
assigned.category: class 1
--
compound: O=C(O)c1cccc(-c2ccc(-c3cn(C(=O)N4CCCCC4Cc4ccccc4)nn3)cc2)c1 (stereo not given)
assigned.category: class 1
--
compound: CCN1C(C)(C)CC(Oc2ccc(C(=O)Nc3ccc(NC(=O)Nc4cc(C(C)(C)C)on4)cc3)nc2)CC1(C)C
assigned.category: class 0
--
compound: CC1=C(C(=O)Nc2cc(Cl)ccc2Cl)C(c2ccco2)C2=C(CCCC2=O)N1 (stereo not given)
assigned.category: class 1
--
compound: CC1(S(=O)(=O)O)CC(=O)c2ccccc2C1=O (stereo not given)
assigned.category: class 1
--
compound: COC(=O)c1sccc1S(=O)(=O)Nc1ccc(Nc2ccccc2)cc1OC
assigned.category: class 1
--
compound: CN1CCC(c2cn(C)c3ccc(OS(=O)(=O)c4c(F)cccc4F)cc23)CC1
assigned.category: class 1
--
compound: COc1cc(CCc2cc(NC(=O)c3ccc(N4CC(C)NC(C)C4)cc3)n[nH]2)cc(OC)c1 (stereo not given)
assigned.category: class 0
--
compound: CC(C)(C)c1ccc(C(=O)Nc2cc(Cl)c(Br)cc2C(=O)O)cc1
assigned.category: class 1
--
compound: C#CC(=O)N(c1ccc(OC)cc1OC)C(C(=O)NCC(=O)OCC)c1cccs1 (stereo not given)
assigned.category: class 1
--
compound: O=C(N[C@H]1CCN(C(=O)c2cc(C(F)(F)F)cc(C(F)(F)F)c2)[C@H](Cc2ccc(Cl)cc2)C1)c1ccnc2ccccc12
assigned.category: class 1
--
compound: O=C(c1ccc(OC(F)F)c(C#Cc2ccccn2)c1)N1Cc2cccnc2C1
assigned.category: class 0
--
compound: CC(C)(C)Sc1c(CC(C)(C)C(=O)O)n(Cc2ccc(Cl)cc2)c2ccc(OCc3ccc4ccccc4n3)cc12
assigned.category: class 1
--
compound: CC(C)c1ccc(-c2cc(=O)c3ccccc3o2)cc1
assigned.category: class 1
--
compound: C[C@H](Oc1cc(-n2cnc3ccc(CN4CCN(C)CC4)cc32)sc1C(N)=O)c1ccccc1C(F)(F)F
assigned.category: class 1
--
compound: CCOc1ccc(CCNC(=O)c2cc3sc(Cl)cc3n2C)cc1OCC
assigned.category: class 1
--
compound: CN(C)C(=O)Nc1cccc(-c2ccc(N(C)C)cc2)c1
assigned.category: class 1
--
compound: COC1CCN(C(=O)c2cc(Cc3n[nH]c(=O)c4ccccc34)ccc2F)CC1
assigned.category: class 1
--
compound: COc1cc2c(cc1OCCCN1CCCC1)N=C(N)C21CCC1
assigned.category: class 0
--
compound: CCOC(=O)CCNc1cc(N2CCc3ccccc3CC2)nc(-c2cccnc2)n1
assigned.category: class 1
--
compound: O=C(Nc1ccc(N2C(=O)[C@@H]3[C@H](C2=O)[C@@H]2C=C[C@H]3C2)c(Cl)c1)c1ccccn1
assigned.category: class 1
--
compound: Cc1csc2c(N[C@@H](C)CN3CCN(S(=O)(=O)c4ccc(Cl)c(Cl)c4)CC3)ncnc12
assigned.category: class 1
--
compound: COc1cc2nc(C3CC3)nc(N3CCN(c4ccccc4OC)CC3)c2cc1OC
assigned.category: class 1
--
compound: CN(C)CCN(Cc1ccccc1)C(=O)c1cc(-c2ccc(F)cc2)n2nc(C(C)(C)C)cc2n1
assigned.category: class 1
--
compound: C[C@@H](NC(=O)C(=O)c1c[nH]c2ccc([N+](=O)[O-])cc12)c1ccccc1
assigned.category: class 0
--
compound: C[C@@H]1CCCN1CCc1cc2cc(-c3ccc(C#N)cc3)ccc2o1
assigned.category: class 0
